# tgt: recombinant human ULK1 protein (1-649) (Homo sapiens, UniProt O75385)
# Construct: recombinant human ULK1 protein (1-649, SignalChem #U01-11G); purchased SignalChem U01-11G
# Sequence (O75385 1-649): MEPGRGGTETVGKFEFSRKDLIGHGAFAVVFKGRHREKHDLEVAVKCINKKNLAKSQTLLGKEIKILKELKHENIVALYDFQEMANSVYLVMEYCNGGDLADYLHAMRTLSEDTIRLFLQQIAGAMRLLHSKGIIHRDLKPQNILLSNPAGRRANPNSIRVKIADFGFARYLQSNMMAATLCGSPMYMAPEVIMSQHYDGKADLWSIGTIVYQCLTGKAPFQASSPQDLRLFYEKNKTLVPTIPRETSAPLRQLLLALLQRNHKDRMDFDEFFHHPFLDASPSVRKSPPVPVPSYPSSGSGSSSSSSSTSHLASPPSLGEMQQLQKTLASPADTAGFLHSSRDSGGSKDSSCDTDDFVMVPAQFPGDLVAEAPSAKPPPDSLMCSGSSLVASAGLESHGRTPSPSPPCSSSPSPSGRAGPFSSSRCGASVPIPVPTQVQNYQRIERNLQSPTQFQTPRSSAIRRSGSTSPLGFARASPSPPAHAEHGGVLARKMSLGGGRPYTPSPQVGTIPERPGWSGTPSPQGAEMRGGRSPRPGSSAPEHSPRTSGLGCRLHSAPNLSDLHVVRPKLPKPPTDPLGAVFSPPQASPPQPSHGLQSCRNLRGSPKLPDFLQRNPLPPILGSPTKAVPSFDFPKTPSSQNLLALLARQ
# assay.notes: ULK1 inhibition assay (ADP Glo)
# Type: biochemical
# test.settings: Table 3
# reported IC50; entries follow

Need IC50 of COc1cc(Nc2ncc(Br)c(Nc3ccccc3CN(C)CCO)n2)cc(OC)c1OC [Compound C23] , thanks.
> 0.1 µM

Need IC50 of COC(=O)c1ccccc1Nc1nc(Nc2cc(OC)c(OC)c(OC)c2)ncc1Br [Compound E1] , thanks.
< 0.005 µM

Need IC50 of CNC(=O)c1ccccc1Nc1nc(Nc2ccc3c(c2)OCO3)ncc1C(F)(F)F [Compound E6] , thanks.
0.005 to 0.1 µM

Need IC50 of COc1cc(Nc2ncc(Br)c(Oc3ccc(NC(=O)C4(C(=O)Nc5ccc(F)cc5)CC4)cc3F)n2)cc(OC)c1OC [Compound C28] , thanks.
> 0.1 µM

Need IC50 of NCc1ccc(Nc2ncc(C(F)(F)F)c(NC3CC3)n2)cc1 [Compound D3] , thanks.
< 0.005 µM

Others:
Need IC50 of CN(C)c1ccc(Nc2ncc(Br)c(Nc3ccccc3CO)n2)cc1 [Compound C11] , thanks.
< 0.005 µM

Need IC50 of COc1cc(Nc2ncc(Br)c(Nc3ccccc3CN(C)CC#N)n2)cc(OC)c1OC [Compound C26] , thanks.
0.005 to 0.1 µM

Need IC50 of CNC(=O)c1ccccc1Nc1nc(Nc2ccc(OC(F)F)cc2)ncc1Br [Compound E18] , thanks.
> 0.1 µM
